So I've got a bunch of compounds here, and I need their NNMT values.
Target: NNMT (hNNMT) (Homo sapiens, UniProt P40261)
Construct: wild type, N-terminal His6 tag kept (no cleavage described), E. coli, construct 31248 Da
Sequence (P40261 whole entry): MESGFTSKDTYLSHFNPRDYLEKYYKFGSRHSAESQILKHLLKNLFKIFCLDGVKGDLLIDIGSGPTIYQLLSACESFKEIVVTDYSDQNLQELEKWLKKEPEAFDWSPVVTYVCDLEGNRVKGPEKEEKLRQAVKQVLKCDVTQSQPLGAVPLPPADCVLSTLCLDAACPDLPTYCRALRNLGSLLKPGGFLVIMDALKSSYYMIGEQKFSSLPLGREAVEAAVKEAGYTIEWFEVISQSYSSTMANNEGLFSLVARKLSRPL
Design: Intact protein LC/MS covalent labelling, fragments in pools of five, 200 uM each, 4 °C
Conditions: 24 h, 4 °C, pool of five; 200 µM; covalent
Procedure: Incubations were performed at 200 μM for each compound and 2 μM of protein (10 μM for BSA) for 24 h at 4 °C with moderate shaking. […] Following incubation, we used intact protein [compound left out] chromatography/mass spectrometry (LC/MS) to identify the fragments and quantify their labeling (Figure 3A). […]
Give bare numbers.

Below, 10 compounds whose answers are already recorded.
# compound, NNMT
rows = [
    ("COc1ccc(NC(=O)CCl)cc1 [PCM-0102156]", 0.25),
    ("Cl.O=C(CCl)Nc1cccnc1 [PCM-0102653]", 0),
    ("O=C(CCl)Nc1cccc(C(=O)N2CCSCC2)c1 [PCM-0103072]", 0),
    ("Cc1cc(C)c(NC(=O)CCl)c(Cl)c1 [PCM-0102994]", 0.46),
    ("C=CC(=O)NC(C)C(=O)N1CCc2ccccc21 (centres unmarked) [PCM-0102486]", 0),
    ("C=CC(=O)N1CCC(c2nc(C(F)(F)F)c[nH]2)CC1 [PCM-0102513]", 0.22),
    ("CC(NC(=O)CCl)c1ccc(F)cc1 (centres unmarked) [PCM-0102228]", 0),
    ("C=CC(=O)N1CCC2(CCN(C)C2=O)CC1 [PCM-0102475]", 0),
    ("C=CC(=O)N1CCC(NC(=O)OC(C)(C)C)CC1 [PCM-0102617]", 0.16),
    ("O=C(CCl)N1CCC(C(=O)N2CCCCC2)CC1 [PCM-0102972]", 0),
]

Look up NNMT for the entries below, preserving their order.
1. C=CC(=O)N1CCCN(C(=O)c2cc(Cl)cn2C)CC1 [PCM-0103003]
2. C=CC(=O)N1CCC(Oc2cnc3ccccc3n2)CC1 [PCM-0102925]
3. COC(=O)c1cc(NC(=O)CCl)cn1C [PCM-0102545]
4. O=C(CCl)Nc1ccccc1N1CCOCC1 [PCM-0102416]
5. O=C(CCl)N(C1CCCC1)C1CC1 [PCM-0103064]
6. CCc1sc(C(=O)NNC(=O)CCl)cc1C [PCM-0103009]
7. C=CC(=O)N1CCC(C(=O)Nc2cc(C)on2)CC1 [PCM-0102477]
8. C=CC(=O)NCC1CCC2(CCOCC2)C1O (centres unmarked) [PCM-0102569]

Key:
[0, 0, 0.16, 0, 0, 0, 0, 0.36]

Look up NNMT for the entries below, preserving their order.
1. O=C(CCl)NC(=O)NC1CCCCC1 [PCM-0102692]
2. CC(C)(C)NC(=O)CN1CCN(C(=O)CCl)CC1.Cl [PCM-0102302]
3. N#Cc1ccc(C(=O)NNC(=O)CCl)cc1 [PCM-0102892]
4. Cc1ccc([N+](=O)[O-])c(NC(=O)CCl)c1C [PCM-0102511]
5. CN(C)C(=O)CN1CCN(C(=O)CCl)CC1.Cl [PCM-0102304]
6. O=C(CCl)N1CCC(Cc2ccccc2)CC1 [PCM-0102492]
7. CC(C)N(C(=O)CCl)C(C)C [PCM-0103023]

Key:
1. 0.76
2. 0.24
3. 0
4. 0
5. 0
6. 0.51
7. 0

Look up NNMT for the entries below, preserving their order.
1. C=CC(=O)N1CCCn2c(cc3ccccc32)C1 [PCM-0102730]
2. CC(NC(=O)CCl)c1ccco1 (centres unmarked) [PCM-0102798]
3. Cl.O=C(CCl)N1CCN(Cc2cccc(Cl)c2)CC1 [PCM-0102269]
4. CC(C)(C)c1ccc(C(=O)NNC(=O)CCl)cc1 [PCM-0102355]

Key:
1: 0; 2: 0; 3: 0; 4: 0
